Hey, just so you know, these numbers are from ChEMBL document CHEMBL3232897.

MIC: recorded values
Test system: Staphylococcus epidermidis
experiment.notes: Antibacterial activity against methicillin-resistant Staphylococcus epidermidis 470/11
Format: functional
Express your answer in µg/mL, writing the number without its unit.

Answered cases to consult:
compound	quantity.name	unit.of.measure	quantitative.result
CC[C@@H](C(=O)[C@@H](C)[C@@H](O)[C@H](C)[C@@H]1O[C@@H]([C@@H](CC)C(=O)O)CC[C@@H]1C)[C@H]1O[C@]2(C=C[C@@H](O)[C@]3(CC[C@@](C)([C@H]4CC[C@](O)(CC)[C@H](C)O4)O3)O2)[C@H](C)C[C@@H]1C	MIC	µg/mL	16
CC[C@@H](C(=O)[C@@H](C)[C@@H](O)[C@H](C)[C@@H]1O[C@@H]([C@@H](CC)C(=O)NCCOCCO)CC[C@@H]1C)[C@H]1O[C@]2(C=C[C@@H](O)[C@]3(CC[C@@](C)([C@H]4CC[C@](O)(CC)[C@H](C)O4)O3)O2)[C@H](C)C[C@@H]1C	MIC	µg/mL	64
CC[C@@H](C(=O)[C@@H](C)[C@@H](O)[C@H](C)[C@@H]1O[C@@H]([C@@H](CC)C(=O)NCCS)CC[C@@H]1C)[C@H]1O[C@]2(C=C[C@@H](O)[C@]3(CC[C@@](C)([C@H]4CC[C@](O)(CC)[C@H](C)O4)O3)O2)[C@H](C)C[C@@H]1C	MIC	µg/mL	64
CC[C@@H](C(=O)[C@@H](C)[C@@H](O)[C@H](C)[C@@H]1O[C@@H]([C@@H](CC)C(=O)NCCCCN)CC[C@@H]1C)[C@H]1O[C@]2(C=C[C@@H](O)[C@]3(CC[C@@](C)([C@H]4CC[C@](O)(CC)[C@H](C)O4)O3)O2)[C@H](C)C[C@@H]1C	MIC	µg/mL	64

Data point: `O=C(O)c1cn(C2CC2)c2cc(N3CCNCC3)c(F)cc2c1=O` ; MIC = 0.125
